Data provenance: patent US20220017615A1

Molecular target: T1, human CD47, full length, on transfected cells (human, UniProt Q08722 19-323)
T1 construct: whole, on cells; also called CHOK1-hCD47
Assay: FACS CHOK1-hCD47; Ab 0.064 nM
Consider the following binders; for each one, report its mean fluorescence intensity.

{"columns": ["binder", "measuredProperty", "result"],
 "data": [
  ["51E2F11 (antibody, V domains shown, Murine hybridoma antibody purified on protein G) VH: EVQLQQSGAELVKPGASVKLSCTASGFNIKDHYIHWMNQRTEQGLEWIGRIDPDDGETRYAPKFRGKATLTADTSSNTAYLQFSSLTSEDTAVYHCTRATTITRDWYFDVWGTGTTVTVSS VL: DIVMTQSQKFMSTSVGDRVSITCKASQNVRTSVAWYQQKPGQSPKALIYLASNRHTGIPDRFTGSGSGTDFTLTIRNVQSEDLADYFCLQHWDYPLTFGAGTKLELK", "mean fluorescence intensity", 541],
  ["20H4G5 (antibody, V domains shown, Murine hybridoma antibody purified on protein G) VH: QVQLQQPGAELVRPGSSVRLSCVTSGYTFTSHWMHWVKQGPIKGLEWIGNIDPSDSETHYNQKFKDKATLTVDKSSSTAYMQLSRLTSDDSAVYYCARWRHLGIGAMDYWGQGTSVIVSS VL: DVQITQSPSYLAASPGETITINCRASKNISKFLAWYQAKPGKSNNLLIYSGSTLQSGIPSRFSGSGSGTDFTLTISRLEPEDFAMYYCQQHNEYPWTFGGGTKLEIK", "mean fluorescence intensity", 759],
  ["4D10B11 (antibody, V domains shown, Murine hybridoma antibody purified on protein G) VH: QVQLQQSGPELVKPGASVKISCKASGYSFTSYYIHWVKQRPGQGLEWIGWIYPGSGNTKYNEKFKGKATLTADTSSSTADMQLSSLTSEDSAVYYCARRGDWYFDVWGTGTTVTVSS VL: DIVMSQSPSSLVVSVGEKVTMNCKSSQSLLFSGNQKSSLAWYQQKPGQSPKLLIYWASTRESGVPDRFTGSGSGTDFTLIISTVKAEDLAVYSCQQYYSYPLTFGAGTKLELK", "mean fluorescence intensity", 480]
]}

Lab note: next binder to report on.
Data request: Recorded mean fluorescence intensity of 132D1E5 (antibody, V domains shown, Murine hybridoma antibody purified on protein G) VH: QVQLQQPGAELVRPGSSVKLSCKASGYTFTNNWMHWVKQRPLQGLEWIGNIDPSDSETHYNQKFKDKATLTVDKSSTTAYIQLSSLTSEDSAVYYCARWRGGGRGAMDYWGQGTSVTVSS VL: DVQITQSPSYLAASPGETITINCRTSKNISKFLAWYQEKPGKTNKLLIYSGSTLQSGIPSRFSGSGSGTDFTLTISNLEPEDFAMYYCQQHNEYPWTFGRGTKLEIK , please.
Data returned: 318
